- System: SF-268 CNS
- PROTOCOL DESCRIPTION: NCI-60 one-dose screen, 48 h
- PARTICULARS: 10 µM unless noted
This is part of a sample that, as a whole, favours compounds with a hit. Of some 83,000 tested, about 20% had one in any assay. Active and inactive are the calls of the source. How the source made its calls: active means growth percent below 10; inactive means the rest.
Field 'call' accepts yes = active, no = inactive

Just curious, what result did CCC(=O)c1cc(C(=O)OC)c2ccc3c4ccccc4ccc3n12 get here?
no

Just curious, what result did CN(C)c1nc(NCCNS(=O)(=O)c2ccc(C(=O)/C=C/c3ccc(Cl)cc3)cc2)nc(N2CCOCC2)n1 get here?
no

Just curious, what result did CN(C)C(=O)c1cc(-c2ccc3ncnc(N4CCc5cc(F)c(Cl)cc54)c3c2)cnc1N get here?
no

Just curious, what result did O=C1Nc2cc(-c3ccc(NS(=O)(=O)c4ccc(C(F)(F)F)cc4)cc3)ccc2/C1=C/c1ccc[nH]1 get here?
no

Just curious, what result did O=C(N/N=C/c1ccc(-c2cccc([N+](=O)[O-])c2)s1)c1[nH]c2ccc(Br)cc2c1-c1ccccc1 get here?
no

Just curious, what result did N#Cc1c(NC(=O)N2CCOCC2)n(-c2ccc(OC(F)(F)F)cc2)c2cc(F)ccc12 get here?
no

Just curious, what result did Cc1ccc(C(=O)Nc2cc(-c3ccccc3)cc(C(F)(F)F)c2)cc1C#Cc1cnc2cccnn12 get here?
no

Just curious, what result did O=C(N=Nc1c(O)[nH]c2ccc(Cl)cc12)c1ccc2nc(-c3ccc(Cl)cc3)[nH]c2c1 get here?
yes

Just curious, what result did Cc1ccc(C(=O)Nc2cc(-n3cnc(F)c3)cc(C(F)(F)F)c2)cc1C#Cc1cnc2cccnn12 get here?
no

Just curious, what result did N#CC1=C(c2cccs2)Nc2c(c(-c3ccccc3)nn2-c2ccccc2)C12C(=O)Nc1ccc(Cl)cc12 (stereo not given) get here?
no

Just curious, what result did CC(=O)Nc1ccc(S(=O)(=O)Nc2ccc(-c3ccc4c(c3)NC(=O)/C4=C\c3ccc[nH]3)cc2)cc1 get here?
no

Just curious, what result did O=C1/C(=C/c2cccc3c2OCO3)Cc2c(F)cc(Br)cc21 get here?
no

Just curious, what result did Cc1ccc(S(=O)(=O)N(CCn2ccnc2[N+](=O)[O-])CCn2ccnc2[N+](=O)[O-])cc1 get here?
no

Just curious, what result did COc1ccc2[nH]cc(-c3cc4nc(-c5cn(C)c6ncccc56)cc(N)n4n3)c2c1 get here?
no

Just curious, what result did O=C(CSc1nnc(-c2ccc(-c3nc4ccccc4[nH]3)cc2)o1)Nc1ccc(Br)cc1 get here?
no

The reported numbers originate from PubChem BioAssay (NCI).
